Assay: Example 11: plasma pharmacokinetics (toxicokinetics) of tozadenant in mice after twice daily oral administration
Type: in vivo, Crl:CD1(ICR) mice
Details: female, Crl:CD1(ICR), mouse, plasma, po, 2000 mg/kg/day, Group 4, Female, 2000 mg/kg/day (1000 mg/kg/dose), oral, dosing at 0, 8 hr; read-out: AUC0-8
reported property: AUC(0-t) (ng·h/mL)

- compound: "COc1ccc(N2CCOCC2)c2sc(NC(=O)N3CCC(C)(O)CC3)nc12 [SYN-115]"
  reported property: "AUC(0-t)"
  recorded result: 35400

###

Assay: Example 11: plasma pharmacokinetics (toxicokinetics) of tozadenant in mice after twice daily oral administration
Type: in vivo, Crl:CD1(ICR) mice
Details: female, Crl:CD1(ICR), mouse, plasma, po, 2000 mg/kg/day, Group 5, Female, 2000 mg/kg/day (1000 mg/kg/dose), oral, dosing at 0, 12 hr; read-out: AUC12-24

- compound: "COc1ccc(N2CCOCC2)c2sc(NC(=O)N3CCC(C)(O)CC3)nc12 [SYN-115]"
  reading unit: "ng·h/mL"
  AUC: 27200
